Reference source: patent US9029076B2

I'd appreciate it if you could supply ERK T202/Y204 Normalized data values for the items below.
Test system: ERK T202/Y204
Assay: RPA phosphoprotein level after 24 h storage of tumor needle samples in preservatives
Details: Parathyroid tumor; 24 h in preservative at 4° C.; relative normalized RPA intensity; Lysis Buffer = frozen immediately after lysis
Experimental: The RPA format, originated by the present inventors and collaborators (see, e.g., Paweletz et al. (2001) Oncogene 20, 1981-1989), immobilizes an individual test sample in a miniature dilution curve such that an array contains hundreds of different patient samples, treatments, or time points. In the RPA format, each array is incubated with one detection protein (e.g. anti-peptide antibody), and a single analyte endpoint is measured and directly compared across multiple samples. […]
Give bare numbers.

Consider the reported ERK T202/Y204 Normalized data for these compounds:
OC[C@H]1O[C@@](CO)(O[C@H]2O[C@H](CO)[C@@H](O)[C@H](O)[C@H]2O)[C@@H](O)[C@@H]1O	1.15
OC[C@H]1O[C@H](O[C@H]2O[C@H](CO)[C@@H](O)[C@H](O)[C@H]2O)[C@H](O)[C@@H](O)[C@@H]1O	9.34
CC(C)=O	77.97
CO	28.54
CCO	37.27

Query: I'm curious: which ERK T202/Y204 Normalized data was measured for [Cl-].[Na+] [0.9% saline, sodium chloride] tested on ERK T202/Y204?
Result: 0.00

* * *

I'd appreciate it if you could supply AKT ser473 Normalized data values for the items below.
test system: AKT ser473; experiment: RPA phosphoprotein level after 24 h storage of tumor needle samples in preservatives; conditions: Gastrinoma/liver tumor; 24 h in preservative at 4° C.; relative normalized RPA intensity; Lysis Buffer = frozen immediately after lysis
Numbers only.

[Cl-].[Na+] [0.9% saline, sodium chloride]	3.76
CO	4.15
CC(C)=O	4.56

List AKT ser473 Normalized data for every entry below, keeping the order given.
1. OC[C@H]1O[C@@](CO)(O[C@H]2O[C@H](CO)[C@@H](O)[C@H](O)[C@H]2O)[C@@H](O)[C@@H]1O
2. CCO
3. OC[C@H]1O[C@H](O[C@H]2O[C@H](CO)[C@@H](O)[C@H](O)[C@H]2O)[C@H](O)[C@@H](O)[C@@H]1O

Result:
1: 16.16; 2: 0.00; 3: 0.00

* * *

tested on: AKT Thr308; assay: RPA phosphoprotein level after 24 h storage of tumor needle samples in preservatives; settings: Gastrinoma/liver tumor; 24 h in preservative at 4° C.; relative normalized RPA intensity; Lysis Buffer = frozen immediately after lysis
quantity_name: AKT Thr308 Normalized data
One number for each entry.

Consider the reported AKT Thr308 Normalized data for these molecules:
OC[C@H]1O[C@@](CO)(O[C@H]2O[C@H](CO)[C@@H](O)[C@H](O)[C@H]2O)[C@@H](O)[C@@H]1O [30% sucrose, sucrose]	42.04
[Cl-].[Na+] [0.9% saline, sodium chloride]	9.73
CO [Methanol]	43.73
OC[C@H]1O[C@H](O[C@H]2O[C@H](CO)[C@@H](O)[C@H](O)[C@H]2O)[C@H](O)[C@@H](O)[C@@H]1O [15% trehalose, Trehalose]	19.93

List AKT Thr308 Normalized data for every entry below, keeping the order given.
1. CC(C)=O [Acetone]
2. CCO [70% ethanol, ethanol]

Result:
[25.45, 0.00]

* * *

system: p38 T180/182; test: RPA phosphoprotein level after 24 h storage of tumor needle samples in preservatives; settings: Mesothelioma; 24 h in preservative at 4° C.; relative normalized RPA intensity
Classification field: enter Met for p38 T180/182 Normalized data values not below 30, Not met for values below it.

Query: I'd appreciate it if you could say whether CC(C)=O has p38 T180/182 Normalized data at least equal to 30.
Result: Met

* * *

I'd appreciate it if you could supply CREBser133 Normalized data values for the items below.
tested on: CREB ser133; test: RPA phosphoprotein level after 24 h storage of tumor needle samples in preservatives; settings: Mesothelioma; 24 h in preservative at 4° C.; relative normalized RPA intensity
One number for each entry.

Consider the reported CREBser133 Normalized data for these compounds:
CC(C)=O	83.10
CCO	53.05
[Cl-].[Na+] [0.9% saline, sodium chloride]	17.20

List CREBser133 Normalized data for every entry below, keeping the order given.
1. CO
2. OC[C@H]1O[C@@](CO)(O[C@H]2O[C@H](CO)[C@@H](O)[C@H](O)[C@H]2O)[C@@H](O)[C@@H]1O
3. OC[C@H]1O[C@H](O[C@H]2O[C@H](CO)[C@@H](O)[C@H](O)[C@H]2O)[C@H](O)[C@@H](O)[C@@H]1O

Result:
[114.37, 22.82, 10.01]

* * *

test system: IKappa-Ba ser32; assay: RPA phosphoprotein level after 24 h storage of tumor needle samples in preservatives; conditions: Gastrinoma/liver tumor; 24 h in preservative at 4° C.; relative normalized RPA intensity; Lysis Buffer = frozen immediately after lysis
quantity_name: IKappa-Ba ser32 Normalized data
Answers are plain numbers.

List IKappa-Ba ser32 Normalized data for every entry below, keeping the order given.
1. OC[C@H]1O[C@H](O[C@H]2O[C@H](CO)[C@@H](O)[C@H](O)[C@H]2O)[C@H](O)[C@@H](O)[C@@H]1O
2. CC(C)=O
3. CO
4. CCO

Result:
[32.99, 48.91, 54.98, 28.36]

List IKappa-Ba ser32 Normalized data for every entry below, keeping the order given.
1. [Cl-].[Na+] [0.9% saline, sodium chloride]
2. OC[C@H]1O[C@@](CO)(O[C@H]2O[C@H](CO)[C@@H](O)[C@H](O)[C@H]2O)[C@@H](O)[C@@H]1O

Result:
[29.64, 69.82]

* * *

system: p38 T180/182; assay: RPA phosphoprotein level after 24 h storage of tumor needle samples in preservatives; conditions: Mesothelioma; 24 h in preservative at 4° C.; relative normalized RPA intensity
quantity_name: p38 T180/182 Normalized data
Numbers only.

OC[C@H]1O[C@@](CO)(O[C@H]2O[C@H](CO)[C@@H](O)[C@H](O)[C@H]2O)[C@@H](O)[C@@H]1O	28.71
CO	53.36
OC[C@H]1O[C@H](O[C@H]2O[C@H](CO)[C@@H](O)[C@H](O)[C@H]2O)[C@H](O)[C@@H](O)[C@@H]1O	7.39
[Cl-].[Na+] [0.9% saline, sodium chloride]	26.34

Could you now consider this next molecule?
Query: Which p38 T180/182 Normalized data reading was recorded for the molecule CCO ?
Result: 49.07
